System: Pseudomonas aeruginosa
Assay: Antibacterial activity against Pseudomonas aeruginosa assessed as bacterial growth inhibition by serial dilution method
Type: functional
For each entry below, report its MIC value.

Look over these answered cases.
NC(=S)N/N=C/c1ccc(OCc2cn(Cc3ccc(Br)cc3)nn2)cc1 ... 6.25 µg/mL
NC(=S)N/N=C/c1cccc(OCc2cn(Cc3ccc(Br)cc3)nn2)c1 ... 6.25 µg/mL

State recorded MIC for all listed compounds.
1. COc1cccc2cc(C(=O)c3cn(-c4ccc(Cl)cc4)nn3)c(=O)oc12
2. O=C(Nc1ccc(F)cc1)OCc1cn(Cc2ccc(Br)cc2)nn1

*A*
["6.25 µg/mL", "3.12 µg/mL"]
